Target: HBV polymerase (Hepatitis B virus genotype A2 subtype adw2)
Construct: made in house; host or cells: E. coli
Sequence (P03159 whole entry): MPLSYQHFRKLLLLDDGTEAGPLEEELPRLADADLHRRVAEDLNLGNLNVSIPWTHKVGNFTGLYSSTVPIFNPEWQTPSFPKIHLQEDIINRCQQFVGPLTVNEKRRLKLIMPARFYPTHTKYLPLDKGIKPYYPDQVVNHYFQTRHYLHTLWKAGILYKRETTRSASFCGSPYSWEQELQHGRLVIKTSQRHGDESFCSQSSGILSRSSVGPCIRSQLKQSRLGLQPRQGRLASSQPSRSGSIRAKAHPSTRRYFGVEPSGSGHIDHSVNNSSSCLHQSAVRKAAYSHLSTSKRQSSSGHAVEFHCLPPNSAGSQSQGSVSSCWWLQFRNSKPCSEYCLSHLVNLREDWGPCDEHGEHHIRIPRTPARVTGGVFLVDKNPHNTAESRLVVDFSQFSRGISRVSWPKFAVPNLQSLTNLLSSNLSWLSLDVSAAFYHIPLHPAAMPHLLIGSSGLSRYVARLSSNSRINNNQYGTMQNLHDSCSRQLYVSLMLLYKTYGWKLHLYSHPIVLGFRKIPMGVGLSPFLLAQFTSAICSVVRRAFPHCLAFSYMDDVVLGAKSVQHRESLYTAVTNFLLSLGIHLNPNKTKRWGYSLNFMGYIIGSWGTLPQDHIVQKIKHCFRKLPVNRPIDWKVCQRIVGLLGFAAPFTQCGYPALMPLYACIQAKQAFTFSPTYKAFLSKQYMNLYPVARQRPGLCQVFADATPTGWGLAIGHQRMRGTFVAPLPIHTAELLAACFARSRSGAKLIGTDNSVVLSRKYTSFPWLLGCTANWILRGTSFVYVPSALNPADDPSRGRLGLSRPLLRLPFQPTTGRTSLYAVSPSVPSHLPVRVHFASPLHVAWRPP
Test: In vitro reverse transcription activity of HBV polymerase (ELISA-type, DIG/biotin nucleotides)
Type: biochemical
Settings: 1 μg/ml test compound; read-out: Inhibition activity on HBV-RT (%)
parameter-measured: inhibition at 1 µg/mL (%)
Record the value in %, omitting the unit from your answer.

Kindly note the recorded inhibition at 1 µg/mL for COC(=O)[C@@H](NC(=O)c1cnc(SC)nc1Nc1ccc2[nH]ncc2c1)[C@@H](C)O [Example 23] , which is 51

Item: CSc1ncc(C(=O)NCCN2CCOCC2)c(Nc2ccc3[nH]ncc3c2)n1 [Example 19] | inhibition at 1 µg/mL: 64

The recorded inhibition at 1 µg/mL for entry CSc1ncc(C(=O)N2CCN(CCO)CC2)c(Nc2ccc3cn[nH]c3c2)n1 [Example 34] equals 59

For this compound ( CSc1ncc(C(=O)NN2CCN(C)CC2)c(Nc2ccc3cn[nH]c3c2)n1 [Example 22] ), measured inhibition at 1 µg/mL is 72

The measured inhibition at 1 µg/mL associated with CSc1ncc(C(=O)NCCO)c(Nc2ccc3cn[nH]c3c2)n1 [Example 8] reads 95

Looking up CSc1ncc(C(=O)NCc2cccnc2)c(Nc2ccc3[nH]ncc3c2)n1 [Example 25] , I found its inhibition at 1 µg/mL recorded as 97

// field: inhibition at 1 µg/mL; key: COCCNC(=O)c1cnc(SC)nc1Nc1ccc2cn[nH]c2c1 [Example 14] ; value = 60

Record CSc1ncc(C(N)=O)c(Nc2ccc3cn[nH]c3c2)n1 [Example 2] , field inhibition at 1 µg/mL: 85

# compound COC(=O)[C@@H](NC(=O)c1cnc(SC)nc1Nc1ccc2cn[nH]c2c1)[C@@H](C)O [Example 24] ; its inhibition at 1 µg/mL = 82
